Recorded values, source patent US9718790B2.

Study target: human P2X3 receptor (Homo sapiens (Human))
Sequence (P56373 whole entry): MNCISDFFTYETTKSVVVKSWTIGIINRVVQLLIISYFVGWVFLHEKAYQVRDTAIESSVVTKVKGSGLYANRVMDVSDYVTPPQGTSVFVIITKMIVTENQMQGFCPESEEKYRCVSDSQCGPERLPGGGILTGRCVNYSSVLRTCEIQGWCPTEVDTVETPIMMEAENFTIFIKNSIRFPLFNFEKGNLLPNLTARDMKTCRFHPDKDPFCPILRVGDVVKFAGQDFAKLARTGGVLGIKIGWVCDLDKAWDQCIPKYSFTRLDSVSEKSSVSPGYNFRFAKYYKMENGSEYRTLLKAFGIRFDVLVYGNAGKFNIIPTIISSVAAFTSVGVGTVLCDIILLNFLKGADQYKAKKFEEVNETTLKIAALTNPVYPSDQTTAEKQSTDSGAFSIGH
Assay comment: Evaluation of human P2X3 receptor inhibitory activity (Fluo-3 calcium fluorescence, FDSS 3000, ATP stimulation);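 note: stimulus was 50 nM ATP with fluorescence followed for 3 min, and the response per well was peak post-ATP fluorescence divided by the reading at measurement start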
Format: cell-based
Condition context: human P2X3 receptor, Test Example 1
Quantity: IC50

- Entry smiles: "CCC(=O)Nc1ccc(Oc2ccc(/N=c3\\[nH]c(=O)n(CC)c(=O)n3Cc3ccc(Cl)cc3)cc2)cn1"
  IC50: "< 4 nM"
- Entry smiles: "CC1(C)OCC(Cn2c(=O)[nH]/c(=N\\c3ccc(Oc4ccon4)cc3)n(Cc3ccc(Cl)cc3)c2=O)CO1"
  IC50: "< 4 nM"

Task item: Record lookup: for human P2X3 receptor (Homo sapiens (Human)), what IC50 belongs to CCn1c(=O)[nH]/c(=N\c2ccc(Oc3ccc(C(N)=O)nn3)cc2)n(Cc2ccc(Cl)cc2)c1=O ?
Reply: < 4 nM
